Reference source for all entries: patent US20240391902A1

Measurement notes: Drug absorption test in male Han-Wister rats
Type: in vivo
Assay conditions: intragastric administration; doses 80, 100, 93.2, 81.1 mg/kg for Example 1, 2, 3, 4 (calculated based on free base)
Result type: Cmax (ng/mL)
Answers are plain numbers, in ng/mL.

[[record]]
molecule = "C=CC(=O)Nc1cc(Nc2ncnc(-c3cn(C)c4ccccc34)n2)c(OC)cc1N(C)CCN(C)C [Example 3]"
result_unit = "ng/mL"
observed = 1020

[[record]]
molecule = "C=CC(=O)Nc1cc(Nc2ncnc(-c3cn(C)c4ccccc34)n2)c(OC)cc1N(C)CCN(C)C [Example 2]"
result_unit = "ng/mL"
observed = 1024

[[record]]
molecule = "C=CC(=O)Nc1cc(Nc2ncnc(-c3cn(C)c4ccccc34)n2)c(OC)cc1N(C)CCN(C)C [Example 4]"
result_unit = "ng/mL"
observed = 1376


Ask: Could you please provide reported Cmax for C=CC(=O)Nc1cc(Nc2ncnc(-c3cn(C)c4ccccc34)n2)c(OC)cc1N(C)CCN(C)C [Example 1] ? Thanks!
Reply: 583

====

Measurement notes: Solid solubility test (2 h and 24 h)
Format: physicochemical
Assay conditions: Test ES4: FaSSIF-V1 (pH 6.5)
Result type: pH measured at 2 h

[[record]]
compound = "C=CC(=O)Nc1cc(Nc2ncnc(-c3cn(C)c4ccccc34)n2)c(OC)cc1N(C)CCN(C)C [Example 1]"
observed = "(6.8)"

[[record]]
compound = "C=CC(=O)Nc1cc(Nc2ncnc(-c3cn(C)c4ccccc34)n2)c(OC)cc1N(C)CCN(C)C [Example 9]"
observed = "(6.1)"

[[record]]
compound = "C=CC(=O)Nc1cc(Nc2ncnc(-c3cn(C)c4ccccc34)n2)c(OC)cc1N(C)CCN(C)C [Example 4]"
observed = "(6.5)"

[[record]]
compound = "C=CC(=O)Nc1cc(Nc2ncnc(-c3cn(C)c4ccccc34)n2)c(OC)cc1N(C)CCN(C)C [Example 2]"
observed = "(6.5)"

[[record]]
compound = "C=CC(=O)Nc1cc(Nc2ncnc(-c3cn(C)c4ccccc34)n2)c(OC)cc1N(C)CCN(C)C [Example 10]"
observed = "(6.4)"


Please look at the items below and tell me pH measured at 2 h for each one, in order.
1. C=CC(=O)Nc1cc(Nc2ncnc(-c3cn(C)c4ccccc34)n2)c(OC)cc1N(C)CCN(C)C [Example 3]
2. C=CC(=O)Nc1cc(Nc2ncnc(-c3cn(C)c4ccccc34)n2)c(OC)cc1N(C)CCN(C)C [Example 7]
3. C=CC(=O)Nc1cc(Nc2ncnc(-c3cn(C)c4ccccc34)n2)c(OC)cc1N(C)CCN(C)C [Example 8]
4. C=CC(=O)Nc1cc(Nc2ncnc(-c3cn(C)c4ccccc34)n2)c(OC)cc1N(C)CCN(C)C [Example 5]

Reply:
["(6.1)", "(6.1)", "(6.4)", "(6.2)"]

====

Measurement notes: Dynamic solubility test
Type: physicochemical
Assay conditions: water, SGF, FaSSIF and FeSSIF, thermodynamic from solid, water, SGF, FaSSIF and FeSSIF, all time points; read-out: dynamic solubility in water, SGF, FaSSIF and FeSSIF (conclusion)
Result type: solubility

Ask: Could you please provide reported solubility for C=CC(=O)Nc1cc(Nc2ncnc(-c3cn(C)c4ccccc34)n2)c(OC)cc1N(C)CCN(C)C [Example 22] ? Thanks!
Reply: > 4 mg/mL

====

Measurement notes: Solid storage stability test
Assay type: physicochemical
Assay conditions: Test BS1: solid/25° C./60% RH/open/1 week
Result type: Morphology (agglomeration, appearance)

[[record]]
compound = "C=CC(=O)Nc1cc(Nc2ncnc(-c3cn(C)c4ccccc34)n2)c(OC)cc1N(C)CCN(C)C [Example 1]"
result_type = "Morphology (agglomeration, appearance)"
observed = "no agglomeration"

[[record]]
compound = "C=CC(=O)Nc1cc(Nc2ncnc(-c3cn(C)c4ccccc34)n2)c(OC)cc1N(C)CCN(C)C [Example 5]"
result_type = "Morphology (agglomeration, appearance)"
observed = "94), agglomeration"

[[record]]
compound = "C=CC(=O)Nc1cc(Nc2ncnc(-c3cn(C)c4ccccc34)n2)c(OC)cc1N(C)CCN(C)C [Example 2]"
result_type = "Morphology (agglomeration, appearance)"
observed = "no agglomeration"

[[record]]
compound = "C=CC(=O)Nc1cc(Nc2ncnc(-c3cn(C)c4ccccc34)n2)c(OC)cc1N(C)CCN(C)C [Example 4]"
result_type = "Morphology (agglomeration, appearance)"
observed = "no agglomeration"


====

Measurement notes: Solid storage stability test
Format: physicochemical
Assay conditions: Test BS2: solid/60° C./closed container/1 week
Result type: Color

Here's what some known entries look like.
[[record]]
compound = "C=CC(=O)Nc1cc(Nc2ncnc(-c3cn(C)c4ccccc34)n2)c(OC)cc1N(C)CCN(C)C [Example 8]"
result_type = "Color"
observed = "no color change"

[[record]]
compound = "C=CC(=O)Nc1cc(Nc2ncnc(-c3cn(C)c4ccccc34)n2)c(OC)cc1N(C)CCN(C)C [Example 9]"
result_type = "Color"
observed = "no color change"

[[record]]
compound = "C=CC(=O)Nc1cc(Nc2ncnc(-c3cn(C)c4ccccc34)n2)c(OC)cc1N(C)CCN(C)C [Example 7]"
result_type = "Color"
observed = "no color change"

[[record]]
compound = "C=CC(=O)Nc1cc(Nc2ncnc(-c3cn(C)c4ccccc34)n2)c(OC)cc1N(C)CCN(C)C [Example 1]"
result_type = "Color"
observed = "no color change"


Please look at the items below and tell me Color for each one, in order.
1. C=CC(=O)Nc1cc(Nc2ncnc(-c3cn(C)c4ccccc34)n2)c(OC)cc1N(C)CCN(C)C [Example 2]
2. C=CC(=O)Nc1cc(Nc2ncnc(-c3cn(C)c4ccccc34)n2)c(OC)cc1N(C)CCN(C)C [Example 3]

Reply:
["no color change", "no color change"]

Please look at the items below and tell me Color for each one, in order.
1. C=CC(=O)Nc1cc(Nc2ncnc(-c3cn(C)c4ccccc34)n2)c(OC)cc1N(C)CCN(C)C [Example 10]
2. C=CC(=O)Nc1cc(Nc2ncnc(-c3cn(C)c4ccccc34)n2)c(OC)cc1N(C)CCN(C)C [Example 4]

Reply:
1: no color change; 2: no color change

====

Measurement notes: Drug absorption test in male Han-Wister rats
Assay type: in vivo
Assay conditions: male, Han-Wister, rat, plasma, po, 81.1 mg/kg, intragastric administration; doses 80, 100, 93.2, 81.1 mg/kg for Example 1, 2, 3, 4 (calculated based on free base)
Result type: half-life (h)
Numbers only, in h.

Ask: Could you please provide reported half-life for `C=CC(=O)Nc1cc(Nc2ncnc(-c3cn(C)c4ccccc34)n2)c(OC)cc1N(C)CCN(C)C` ? Thanks!
Reply: 3.36

====

Measurement notes: Drug absorption test in male Han-Wister rats
Type: in vivo
Assay conditions: male, Han-Wister, rat, plasma, iv, 1 mg/kg, intravenous administration, 1.0 mg/kg (calculated based on free base), rat plasma; read-out: Cmax
Result type: Cmax (ng/mL)
Numbers only, in ng/mL.

Ask: Could you please provide reported Cmax for `C=CC(=O)Nc1cc(Nc2ncnc(-c3cn(C)c4ccccc34)n2)c(OC)cc1N(C)CCN(C)C` ? Thanks!
Reply: 364

====

Measurement notes: Drug absorption test in male Han-Wister rats
Format: in vivo
Assay conditions: male, Han-Wister, rat, plasma, iv, 1 mg/kg, intravenous administration, 1.0 mg/kg (calculated based on free base), rat plasma; read-out: AUC0-t
Result type: AUC0-t (ng·h/mL)
Give bare numbers, in ng·h/mL.

Ask: Could you please provide reported AUC0-t for `C=CC(=O)Nc1cc(Nc2ncnc(-c3cn(C)c4ccccc34)n2)c(OC)cc1N(C)CCN(C)C` ? Thanks!
Reply: 446

====

Measurement notes: Solid storage stability test
Format: physicochemical
Assay conditions: Test BS1: solid/25° C./60% RH/open/1 week
Result type: Color

Here's what some known entries look like.
[[record]]
compound = "C=CC(=O)Nc1cc(Nc2ncnc(-c3cn(C)c4ccccc34)n2)c(OC)cc1N(C)CCN(C)C [Example 2]"
observed = "no color change"

[[record]]
compound = "C=CC(=O)Nc1cc(Nc2ncnc(-c3cn(C)c4ccccc34)n2)c(OC)cc1N(C)CCN(C)C [Example 7]"
observed = "slight color change"

[[record]]
compound = "C=CC(=O)Nc1cc(Nc2ncnc(-c3cn(C)c4ccccc34)n2)c(OC)cc1N(C)CCN(C)C [Example 1]"
observed = "no color change"

[[record]]
compound = "C=CC(=O)Nc1cc(Nc2ncnc(-c3cn(C)c4ccccc34)n2)c(OC)cc1N(C)CCN(C)C [Example 9]"
observed = "slight color change"

[[record]]
compound = "C=CC(=O)Nc1cc(Nc2ncnc(-c3cn(C)c4ccccc34)n2)c(OC)cc1N(C)CCN(C)C [Example 10]"
observed = "no color change"


Please look at the items below and tell me Color for each one, in order.
1. C=CC(=O)Nc1cc(Nc2ncnc(-c3cn(C)c4ccccc34)n2)c(OC)cc1N(C)CCN(C)C [Example 3]
2. C=CC(=O)Nc1cc(Nc2ncnc(-c3cn(C)c4ccccc34)n2)c(OC)cc1N(C)CCN(C)C [Example 4]
3. C=CC(=O)Nc1cc(Nc2ncnc(-c3cn(C)c4ccccc34)n2)c(OC)cc1N(C)CCN(C)C [Example 8]

Reply:
["slight color change", "no color change", "no color change"]
